- ASSAY: In vivo PK after single p.o. and i.v. dosing in CD-1 mice
- Set-up: species or system female CD-1 mice
- RUN_PARAMETERS: oral 25 mg/kg vs i.v. 5 mg/kg, CD-1 mice
RESULT_TYPE: F (oral bioavailability) (%)
The reply should contain only the number, in %.

q: If you can, please state the reported F (oral bioavailability) value of C[C@H]1Cc2c([nH]c3cc(F)ccc23)[C@@]2(N1)C(=O)Nc1ccc(Cl)cc12 [(+)-5] .
a: 47

q: If you can, please state the reported F (oral bioavailability) value of C[C@H]1Cc2c([nH]c3ccc(F)cc23)[C@@]2(N1)C(=O)Nc1ccc(Cl)cc12 [(+)-4] .
a: 26

q: If you can, please state the reported F (oral bioavailability) value of C[C@H]1Cc2c([nH]c3cc(Cl)ccc23)[C@@]2(N1)C(=O)Nc1ccc(Cl)cc12 [(+)-3] .
a: 91

q: If you can, please state the reported F (oral bioavailability) value of C[C@H]1Cc2c([nH]c3ccc(Cl)cc23)[C@@]2(N1)C(=O)Nc1ccc(Cl)cc12 [(+)-2] .
a: 62

---

- ASSAY: In vivo PK after single p.o. and i.v. dosing in CD-1 mice
- Parameters: species or system female CD-1 mice
- RUN_PARAMETERS: female, mouse, plasma; oral 5.6 mg/kg, CD-1 mice, HCl/Solutol HS15/citrate pH 3 formulation; read-out: AUC0–24
- Procedure: The Institutional Animal Care and Use Committee (IACUC) of the Novartis Institute for Tropical Diseases (NITD), registered with the Agri-Food and Veterinary authority (AVA), Government of Singapore, reviewed and approved all animal experimental protocols. […] After vortexing and centrifuging the mixture, the supernatant was removed and 5 μl of sample analyzed. Analyte quantitation was performed by high-performance liquid chromatography coupled with tandem mass spectrometry (LC-MS/MS). […]
RESULT_TYPE: AUC(0-t)
The reply should consist of the numeric value with the unit placed after it.

q: If you can, please state the reported AUC(0-t) value of C[C@H]1Cc2c([nH]c3cc(Cl)c(F)cc23)[C@@]2(N1)C(=O)Nc1ccc(Cl)cc12 [(+)-7 (KAE609)] .
a: 2600 ng·h/mL

---

- ASSAY: In vivo PK after single p.o. and i.v. dosing in CD-1 mice
- Set-up: species or system female CD-1 mice
- RUN_PARAMETERS: i.v. 5 mg/kg, CD-1 mice
RESULT_TYPE: CL
The reply should consist of the numeric value with the unit placed after it.

q: If you can, please state the reported CL value of C[C@H]1Cc2c([nH]c3ccc(Cl)cc23)[C@@]2(N1)C(=O)Nc1ccc(Cl)cc12 [(+)-2] .
a: 5.56 L/h/kg

q: If you can, please state the reported CL value of C[C@H]1Cc2c([nH]c3cc(F)ccc23)[C@@]2(N1)C(=O)Nc1ccc(Cl)cc12 [(+)-5] .
a: 0.708 L/h/kg

q: If you can, please state the reported CL value of C[C@@H]1Cc2c([nH]c3cc(Cl)c(F)cc23)[C@]2(N1)C(=O)Nc1ccc(Cl)cc12 [(−)-7] .
a: 0.156 L/h/kg

q: If you can, please state the reported CL value of C[C@H]1Cc2c([nH]c3ccc(F)cc23)[C@@]2(N1)C(=O)Nc1ccc(Cl)cc12 [(+)-4] .
a: 1.44 L/h/kg
